FYI, the data here is from patent US12448389B2.

biological target: SMARCA2-HiBiT (Homo sapiens); construct: SMARCA2-HiBiT knock-in Hela monoclonal cell (CS302366); host or cells: HeLa monoclonal knock-in line (CRISPR HiBiT knock-in at the endogenous locus, heterozygous); assay: SMARCA2 HiBiT degradation assay in HeLa cells; type: cell-based; conditions: HeLa, 18 hours incubation, read-out: HeLa-HiBit-SM2 Dmax (%)
Kindly state Dmax for each of the entries shown.

{"compound": "O=C1CCC(N2C(=O)c3ccc(N4CCC(CN5C[C@@H]6[C@H](C5)[C@@H]6CN5CCN6c7cc(-c8ccccc8O)nnc7NC[C@H]6C5)CC4)cc3C2=O)C(=O)N1 (stereo partly drawn) [Example 43]", "Dmax": "> 85%"}
{"compound": "O=C1CCC(N2Cc3ccc(N4CCC(CN5CCN(C(=O)N6CCN7c8cc(-c9ccccc9O)nnc8NC[C@H]7C6)CC5C(F)(F)F)CC4)cc3C2=O)C(=O)N1 (stereo partly drawn) [Example 102]", "Dmax": "> 85%"}

The recorded Dmax for entry O=C1CCC(N2C(=O)c3cccc(N4CCC(CN5CCC(CN6CCN7c8cc(-c9ccccc9O)nnc8NC[C@H]7C6)CC5)CC4)c3C2=O)C(=O)N1 (stereo partly drawn) [Example 127] equals > 85%

====

molecular target: SMARCA4-HiBiT (Homo sapiens); construct: SMARCA4-HiBiT knock-in Hela monoclonal cell (CS3023226); host or cells: HeLa monoclonal knock-in line (CRISPR HiBiT knock-in at the endogenous locus, heterozygous); assay: SMARCA4 HiBiT degradation assay in HeLa cells; assay type: cell-based; conditions: HeLa, 18 hours incubation, read-out: HeLa-HiBit-SM4 Dmax (%)
Sequence (P51532 whole entry): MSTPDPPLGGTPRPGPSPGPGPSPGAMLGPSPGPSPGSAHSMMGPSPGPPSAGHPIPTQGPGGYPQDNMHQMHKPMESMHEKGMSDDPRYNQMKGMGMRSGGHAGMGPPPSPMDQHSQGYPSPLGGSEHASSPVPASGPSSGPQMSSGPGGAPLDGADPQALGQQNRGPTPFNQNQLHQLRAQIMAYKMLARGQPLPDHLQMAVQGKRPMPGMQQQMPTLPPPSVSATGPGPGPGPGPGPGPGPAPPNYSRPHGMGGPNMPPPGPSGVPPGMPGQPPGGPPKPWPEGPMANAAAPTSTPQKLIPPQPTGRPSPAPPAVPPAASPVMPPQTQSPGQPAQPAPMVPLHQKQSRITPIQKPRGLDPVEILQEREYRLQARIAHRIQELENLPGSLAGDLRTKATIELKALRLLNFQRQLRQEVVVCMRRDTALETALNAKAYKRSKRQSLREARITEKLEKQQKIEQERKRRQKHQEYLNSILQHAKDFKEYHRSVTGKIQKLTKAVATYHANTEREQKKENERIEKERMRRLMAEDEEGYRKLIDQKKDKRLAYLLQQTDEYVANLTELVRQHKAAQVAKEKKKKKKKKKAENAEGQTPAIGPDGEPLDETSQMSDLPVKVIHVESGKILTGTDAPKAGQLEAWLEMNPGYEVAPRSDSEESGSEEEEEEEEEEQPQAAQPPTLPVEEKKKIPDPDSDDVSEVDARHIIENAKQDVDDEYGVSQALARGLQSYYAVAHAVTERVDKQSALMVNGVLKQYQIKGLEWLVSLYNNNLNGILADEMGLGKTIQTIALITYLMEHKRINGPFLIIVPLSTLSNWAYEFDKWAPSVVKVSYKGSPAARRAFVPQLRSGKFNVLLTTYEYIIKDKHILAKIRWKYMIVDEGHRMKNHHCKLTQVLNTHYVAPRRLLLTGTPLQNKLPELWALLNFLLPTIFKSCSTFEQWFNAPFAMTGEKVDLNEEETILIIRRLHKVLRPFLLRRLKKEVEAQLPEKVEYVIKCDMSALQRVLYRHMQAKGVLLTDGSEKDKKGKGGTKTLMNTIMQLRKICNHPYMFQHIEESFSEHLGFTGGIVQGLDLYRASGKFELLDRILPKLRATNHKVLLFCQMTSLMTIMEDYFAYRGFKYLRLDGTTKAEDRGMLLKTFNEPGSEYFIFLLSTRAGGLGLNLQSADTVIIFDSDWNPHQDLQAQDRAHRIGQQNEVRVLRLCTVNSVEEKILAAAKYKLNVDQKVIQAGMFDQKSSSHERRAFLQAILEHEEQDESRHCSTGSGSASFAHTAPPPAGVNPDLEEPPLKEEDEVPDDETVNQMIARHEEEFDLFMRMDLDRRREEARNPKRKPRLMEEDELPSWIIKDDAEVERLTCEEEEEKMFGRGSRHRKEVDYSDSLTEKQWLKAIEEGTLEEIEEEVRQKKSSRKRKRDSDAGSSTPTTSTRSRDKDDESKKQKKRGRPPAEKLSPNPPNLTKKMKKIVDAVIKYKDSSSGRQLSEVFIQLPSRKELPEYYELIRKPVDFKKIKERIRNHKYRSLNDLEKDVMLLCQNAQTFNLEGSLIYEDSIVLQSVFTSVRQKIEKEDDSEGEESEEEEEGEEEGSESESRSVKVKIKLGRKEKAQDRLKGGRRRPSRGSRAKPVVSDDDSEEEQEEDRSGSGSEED
Kindly state Dmax for each of the entries shown.

Check out these entries, answers already filled in.
{"molecule": "O=C1CCC(N2Cc3ccc(N4CCOC(CN5CCN(C(=O)N6CCN7c8cc(-c9ccccc9O)nnc8NC[C@H]7C6)CC5)C4)cc3C2=O)C(=O)N1 (stereo partly shown)", "obs.value": "50 to 75%"}
{"molecule": "O=C1CCC(N2C(=O)c3ccc(N4CC5CCC(C4)C5CN4C[C@@H]5[C@H](C4)[C@H]5CN4CCN5c6cc(-c7ccccc7O)nnc6NC[C@H]5C4)cc3C2=O)C(=O)N1 (stereo partly shown)", "obs.value": "50 to 75%"}
{"molecule": "CC(CN1CCC(N2CCN3c4cc(-c5ccccc5O)nnc4NC[C@H]3C2)CC1)Oc1ccc2c(c1)CN([C@@H]1CCC(=O)NC1=O)C2=O (stereo partly shown)", "obs.value": "50 to 75%"}
{"molecule": "O=C1CCC(N2Cc3ccc(N4CCC(CN5CC6(C5)CN(C(=O)N5CCN7c8cc(-c9ccccc9O)nnc8NC[C@H]7C5)C6)CC4)cc3C2=O)C(=O)N1 (stereo partly shown)", "obs.value": "75 to 85%"}
{"molecule": "O=C1CCC(N2C(=O)c3ccc(N4CCC(CN5CC6CC6(CN6CCN7c8cc(-c9ccccc9O)nnc8NC[C@H]7C6)C5)CC4)cc3C2=O)C(=O)N1 (stereo partly shown)", "obs.value": "50 to 75%"}
{"molecule": "O=C1CCC(N2Cc3ccc(N4CCC(CN5C6CCC5CN(C(=O)N5CCN7c8cc(-c9ccccc9O)nnc8NC[C@H]7C5)C6)CC4)cc3C2=O)C(=O)N1 (stereo partly shown)", "obs.value": "75 to 85%"}

List the reported Dmax of each molecule below.
1. O=C1CCC(N2C(=O)c3ccc(N4CCC(N[C@H]5C[C@H](CN6CCN7c8cc(-c9ccccc9O)nnc8NC[C@H]7C6)C5)CC4)cc3C2=O)C(=O)N1 (stereo partly shown)
2. O=C1CCC(N2C(=O)c3ccc(N4CCC5(CN6CCC(CN7CCN8c9cc(-c%10ccccc%10O)nnc9NC[C@H]8C7)CC6)CC5C4)cc3C2=O)C(=O)N1 (stereo partly shown)
3. O=C1CCC(N2C(=O)c3ccc(N4CCC(CN5CC6CC(CN7CCN8c9cc(-c%10ccccc%10O)nnc9NC[C@H]8C7)C6C5)C(F)(F)C4)cc3C2=O)C(=O)N1 (stereo partly shown)

> 85%
75 to 85%
75 to 85%

List the reported Dmax of each molecule below.
1. CN(C(=O)N1CCN2c3cc(-c4ccccc4O)nnc3NC[C@H]2C1)C1CCN(CC2CCN(c3ccc4c(c3)C(=O)N(C3CCC(=O)NC3=O)C4=O)CC2)CC1 (stereo partly shown)
2. O=C1CCC(N2C(=O)c3ccc(Nc4cccc(N5CCC(N6CCN7c8cc(-c9ccccc9O)nnc8NC[C@H]7C6)CC5)c4)cc3C2=O)C(=O)N1 (stereo partly shown)
3. O=C1CCC(N2C(=O)c3ccc(N4CCC(F)(CN5C[C@@H]6[C@@H](CN7CCN8c9cc(-c%10ccccc%10O)nnc9NC[C@H]8C7)[C@@H]6C5)CC4)cc3C2=O)C(=O)N1 (stereo partly shown)
4. O=C1CCC(N2C(=O)c3ccc(N4CCC(CN5CC(CN6CCN7c8cc(-c9ccccc9O)nnc8NC[C@H]7C6)C5)CC4)cc3C2=O)C(=O)N1 (stereo partly shown)
5. O=C1CCC(N2Cc3cc(CN4CCC(CCCN5CCC(N6CCN7c8cc(-c9ccccc9O)nnc8NC[C@H]7C6)CC5)CC4)ccc3C2=O)C(=O)N1 (stereo partly shown)
6. NC1(C(=O)OCN2C(=O)CCC(N3C(=O)c4ccc(N5CCC(CN6CCC(CN7CCN8c9cc(-c%10ccccc%10O)nnc9NC[C@H]8C7)CC6)CC5)cc4C3=O)C2=O)CC1 (stereo partly shown)

1: > 85%; 2: 75 to 85%; 3: 50 to 75%; 4: 75 to 85%; 5: > 85%; 6: > 85%

List the reported Dmax of each molecule below.
1. N#CC1(CN2CCC(CN3CCN4c5cc(-c6ccccc6O)nnc5NC[C@H]4C3)CC2)CCN(c2ccc3c(c2)C(=O)N(C2CCC(=O)NC2=O)C3=O)CC1 (stereo partly shown)
2. O=C1CCC(N2Cc3ccc(N4CCC(CN5CCN(C(=O)N6CCN7c8cc(-c9ccccc9O)nnc8NC[C@H]7C6)C6(CC6)C5)CC4)cc3C2=O)C(=O)N1 (stereo partly shown)
3. O=C1CCC(N2Cc3ccc(C4CCN(CCCN5CCC(CN6CCN7c8cc(-c9ccccc9O)nnc8NC[C@H]7C6)CC5)CC4)cc3C2=O)C(=O)N1 (stereo partly shown)
4. CCC1Nc2nnc(-c3ccccc3O)cc2N2CCN(CC3CCN(CC4CCN(c5ccc6c(c5)C(=O)N(C5CCC(=O)NC5=O)C6=O)CC4)CC3)CC12 (stereo not shown)

1. 50 to 75%
2. > 85%
3. 75 to 85%
4. > 85%

List the reported Dmax of each molecule below.
1. CC(COc1ccc2c(c1)CN([C@@H]1CCC(=O)NC1=O)C2=O)N1CCC(N2CCN3c4cc(-c5ccccc5O)nnc4NC[C@H]3C2)CC1 (stereo partly shown)
2. O=C1CCC(N2C(=O)c3ccc(N4CCC5(CC4)CC(N4C[C@@H]6[C@@H](CN7CCN8c9cc(-c%10ccccc%10O)nnc9NC[C@H]8C7)[C@@H]6C4)C5)cc3C2=O)C(=O)N1 (stereo partly shown)
3. CC1(C)CN(CC2CCN(c3ccc4c(c3)C(=O)N(C3CCC(=O)NC3=O)C4=O)CC2)CCC1CN1CCN2c3cc(-c4ccccc4O)nnc3NC[C@H]2C1 (stereo partly shown)

1: 50 to 75%; 2: > 85%; 3: > 85%

====

biological target: SMARCA2-HiBiT (Homo sapiens, UniProt P51531); construct: SMARCA2-HiBiT knock-in Hela monoclonal cell (CS302366); host or cells: HeLa monoclonal knock-in line (CRISPR HiBiT knock-in at the endogenous locus, heterozygous); assay: SMARCA2 HiBiT degradation assay in HeLa cells; type: cell-based; settings: HeLa, 18 hours incubation, read-out: HeLa-HiBit-SM2 Dmax (%)
Sequence (P51531 whole entry): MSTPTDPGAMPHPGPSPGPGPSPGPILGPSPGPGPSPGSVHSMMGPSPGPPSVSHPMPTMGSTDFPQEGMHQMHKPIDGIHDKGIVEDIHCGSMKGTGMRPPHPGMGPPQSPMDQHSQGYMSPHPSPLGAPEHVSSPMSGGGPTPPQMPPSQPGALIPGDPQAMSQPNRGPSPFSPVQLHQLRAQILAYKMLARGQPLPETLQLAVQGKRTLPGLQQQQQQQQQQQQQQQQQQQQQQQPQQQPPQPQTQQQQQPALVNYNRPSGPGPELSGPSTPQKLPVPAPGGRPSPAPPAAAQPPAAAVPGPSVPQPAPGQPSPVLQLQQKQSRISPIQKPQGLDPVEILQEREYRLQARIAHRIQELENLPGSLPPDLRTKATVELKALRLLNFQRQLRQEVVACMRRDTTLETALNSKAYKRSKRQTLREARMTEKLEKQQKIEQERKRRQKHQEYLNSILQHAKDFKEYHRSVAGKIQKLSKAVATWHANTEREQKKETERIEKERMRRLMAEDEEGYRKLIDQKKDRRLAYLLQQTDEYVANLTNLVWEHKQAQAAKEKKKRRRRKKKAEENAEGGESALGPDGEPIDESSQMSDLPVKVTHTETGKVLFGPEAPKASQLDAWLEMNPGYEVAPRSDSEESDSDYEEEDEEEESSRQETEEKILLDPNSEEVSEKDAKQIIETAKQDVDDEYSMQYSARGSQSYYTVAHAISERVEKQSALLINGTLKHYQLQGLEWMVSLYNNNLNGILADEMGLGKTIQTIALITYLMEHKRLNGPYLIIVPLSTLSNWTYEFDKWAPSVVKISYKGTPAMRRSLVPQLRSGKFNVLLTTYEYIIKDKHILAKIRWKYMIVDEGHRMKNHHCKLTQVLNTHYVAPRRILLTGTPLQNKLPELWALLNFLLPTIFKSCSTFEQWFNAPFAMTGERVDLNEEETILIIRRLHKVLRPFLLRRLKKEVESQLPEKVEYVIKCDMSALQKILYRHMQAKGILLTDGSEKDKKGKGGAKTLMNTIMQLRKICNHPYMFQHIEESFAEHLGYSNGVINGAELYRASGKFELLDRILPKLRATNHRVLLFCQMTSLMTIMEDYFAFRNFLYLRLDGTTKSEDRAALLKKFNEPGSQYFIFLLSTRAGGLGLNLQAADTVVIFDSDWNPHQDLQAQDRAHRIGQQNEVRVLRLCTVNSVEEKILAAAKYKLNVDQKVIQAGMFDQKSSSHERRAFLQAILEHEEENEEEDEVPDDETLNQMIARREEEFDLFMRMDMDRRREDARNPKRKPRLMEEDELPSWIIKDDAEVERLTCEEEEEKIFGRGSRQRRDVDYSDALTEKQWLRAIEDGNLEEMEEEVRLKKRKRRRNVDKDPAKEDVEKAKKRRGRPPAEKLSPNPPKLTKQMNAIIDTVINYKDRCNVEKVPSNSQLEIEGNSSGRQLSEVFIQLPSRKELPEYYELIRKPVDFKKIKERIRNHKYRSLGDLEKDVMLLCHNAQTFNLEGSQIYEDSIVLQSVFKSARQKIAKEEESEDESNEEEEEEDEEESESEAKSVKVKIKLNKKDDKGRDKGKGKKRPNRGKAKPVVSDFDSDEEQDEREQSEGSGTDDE
value.type: Dmax

Check out these entries, answers already filled in.
{"molecule": "CC1(C)CN(CC2CCN(c3ccc4c(c3)C(=O)N(C3CCC(=O)NC3=O)C4=O)CC2)CCC1CN1CCN2c3cc(-c4ccccc4O)nnc3NC[C@H]2C1 (stereo partly drawn)", "Dmax": "> 85%"}
{"molecule": "O=C1CCC(N2C(=O)c3ccc(N4CCN(CC5CCN(C(=O)N6CCN7c8cc(-c9ccccc9O)nnc8NC[C@H]7C6)CC5)CC4)cc3C2=O)C(=O)N1 (stereo partly drawn)", "Dmax": "75 to 85%"}

Proceed to the following item.
The observed Dmax for CC1CN(CC2CCN(c3ccc4c(c3)C(=O)N(C3CCC(=O)NC3=O)C4=O)CC2)CCC1CN1CCN2c3cc(-c4ccccc4O)nnc3NC[C@H]2C1 (stereo partly drawn) when tested with SMARCA2-HiBiT (Homo sapiens, UniProt P51531) stands at > 85%

====

Target: SMARCA2-HiBiT (Homo sapiens, UniProt P51531)
Construct: SMARCA2-HiBiT knock-in Hela monoclonal cell (CS302366); host or cells: HeLa monoclonal knock-in line (CRISPR HiBiT knock-in at the endogenous locus, heterozygous)
Assay: SMARCA2 HiBiT degradation assay in HeLa cells
Assay type: cell-based
Details: HeLa, 18 hours incubation, read-out: HeLa-HiBit-SM2 Dmax (%)
Procedure: HiBiT peptide knock-in of SMARCA2 in LgBiT expressing HEK293T cells was performed by CRISPR-mediated tagging system as described Promega. The homozygous HiBiT knock-in on c-terminus SMARCA2 was confirmed by sanger sequence. SMARCA2-HiBiT knock-in Hela monoclonal cell (CS302366) and SMARCA4-HiBiT knock-in Hela monoclonal cell (CS3023226) were purchased from Promega. The heterozygous HiBiT-knock-in was confirmed by sanger sequence in both SMARCA2-HiBiT and SMARCA4-HiBiT monoclonal cells. […]
Kindly state Dmax for each of the entries shown.

Check out these entries, answers already filled in.
{"molecule": "O=C1CCC(N2Cc3cc(OCCCN4CCC(N5CCN6c7cc(-c8ccccc8O)nnc7NC[C@H]6C5)CC4)ccc3C2=O)C(=O)N1 (stereo partly shown)", "Dmax": "> 85%"}
{"molecule": "O=C1CCC(N2Cc3cc(N4CCC(CN5CCC(OC(=O)N6CCN7c8cc(-c9ccccc9O)nnc8NC[C@H]7C6)CC5)CC4)ccc3C2=O)C(=O)N1 (stereo partly shown)", "Dmax": "> 85%"}
{"molecule": "O=C1CCC(N2C(=O)c3ccc(N4CCC(CN5C[C@@H]6[C@H](C5)[C@H]6CN5CCN6c7cc(-c8ccccc8O)nnc7NC[C@H]6C5)C(F)(F)C4)cc3C2=O)C(=O)N1 (stereo partly shown)", "Dmax": "> 85%"}

List the reported Dmax of each molecule below.
1. O=C1CCC(N2C(=O)c3ccc(N4CC[C@H](CN5CCC(CN6CCN7c8cc(-c9ccccc9O)nnc8NC[C@H]7C6)CC5)[C@H](F)C4)cc3C2=O)C(=O)N1 (stereo partly shown)
2. CC1CC(CN2CCN3c4cc(-c5ccccc5O)nnc4NC[C@H]3C2)CCN1CC1CCN(c2cc3c(cc2F)C(=O)N(C2CCC(=O)NC2=O)C3=O)CC1 (stereo partly shown)
3. CC1CN(c2ccc3c(c2)C(=O)N(C2CCC(=O)NC2=O)C3=O)CCC1CN1C[C@@H]2[C@H](C1)[C@H]2CN1CCN2c3cc(-c4ccccc4O)nnc3NC[C@H]2C1 (stereo partly shown)
4. CC1CC(C(=O)N2CCN3c4cc(-c5ccccc5O)nnc4NC[C@H]3C2)CCN1CC1CCN(c2ccc3c(c2)C(=O)N(C2CCC(=O)NC2=O)C3)CC1 (stereo partly shown)

["75 to 85%", "> 85%", "> 85%", "75 to 85%"]

List the reported Dmax of each molecule below.
1. O=C1CCC(N2C(=O)c3ccc(NCCN4CCC(N5CCN6c7cc(-c8cc(F)ccc8O)nnc7NC[C@H]6C5)CC4)cc3C2=O)C(=O)N1 (stereo partly shown)
2. CC1(CN2C[C@@H]3[C@@H](CN4CCN5c6cc(-c7ccccc7O)nnc6NC[C@H]5C4)[C@@H]3C2)CCN(c2ccc3c(c2)C(=O)N(C2CCC(=O)NC2=O)C3=O)C1 (stereo partly shown)
3. O=C1CCC(N2Cc3ccc(N4CC[C@H](CN5C[C@@H]6[C@H](C5)[C@H]6CN5CCN6c7cc(-c8ccccc8O)nnc7NC[C@H]6C5)[C@@H](F)C4)cc3C2=O)C(=O)N1 (stereo partly shown)
4. CN(CCNc1ccc2c(c1)C(=O)N(C1CCC(=O)NC1=O)C2=O)C1CCC(N2CCN3c4cc(-c5ccccc5O)nnc4NC[C@H]3C2)CC1 (stereo partly shown)
5. O=C1CCC(N2C(=O)c3ccc(N4CCC(CN5CCC(CN6CCN7c8cc(-c9ccccc9O)nnc8NC[C@H]7C6)CC5)CC4)cc3C2=O)C(=O)N1 (stereo partly shown)
6. O=C1CCC(N2Cc3cc(OCCN4CCC(CN5CCN6c7cc(-c8ccccc8O)nnc7NC[C@H]6C5)CC4)ccc3C2=O)C(=O)N1 (stereo partly shown)
7. O=C1CCC(N2C(=O)c3ccc(NCCN4C[C@@H]5[C@H](C4)[C@H]5CN4CCN5c6cc(-c7ccccc7O)nnc6NC[C@H]5C4)cc3C2=O)C(=O)N1 (stereo partly shown)
8. CC1CN(CC2CCN(c3ccc4c(c3)C(=O)N(C3CCC(=O)NC3=O)C4=O)CC2)CC(C)N1C(=O)N1CCN2c3cc(-c4ccccc4O)nnc3NC[C@H]2C1 (stereo partly shown)

> 85%
75 to 85%
> 85%
75 to 85%
> 85%
50 to 75%
50 to 75%
> 85%

List the reported Dmax of each molecule below.
1. O=C1CCC(N2C(=O)c3ccc(N4CC(CN5CCN(C(=O)N6CCN7c8cc(-c9ccccc9O)nnc8NC[C@H]7C6)CC5)C4)cc3C2=O)C(=O)N1 (stereo partly shown)
2. CC1(C)CN(c2ccc3c(c2)C(=O)N(C2CCC(=O)NC2=O)C3=O)CCC1CN1CCC(CN2CCN3c4cc(-c5ccccc5O)nnc4NC[C@H]3C2)CC1 (stereo partly shown)
3. O=C1CCC(N2C(=O)c3ccc(N4CC[C@H](CN5C[C@@H]6[C@H](C5)[C@H]6CN5CCN6c7cc(-c8ccccc8O)nnc7NC[C@H]6C5)[C@@H](F)C4)cc3C2=O)C(=O)N1 (stereo partly shown)
4. O=C1CCC(N2C(=O)c3ccc(N4CCC(CN5CCC(CN6CCN7c8cc(-c9ccccc9O)nnc8NC[C@H]7C6)CC5)C(F)(F)C4)cc3C2=O)C(=O)N1 (stereo partly shown)
5. O=C1CCC(N2C(=O)c3ccc(N4CCC(CN5CCC6(CN7CCN8c9cc(-c%10ccccc%10O)nnc9NC[C@H]8C7)CC6C5)CC4)cc3C2=O)C(=O)N1 (stereo partly shown)
6. O=C1CCC(N2C(=O)c3ccc(N4CCC(CN5CCO[C@@H](CN6CCN7c8cc(-c9ccccc9O)nnc8NC[C@H]7C6)C5)CC4)cc3C2=O)C(=O)N1 (stereo partly shown)
7. CN(C(=O)N1CCN2c3cc(-c4ccccc4O)nnc3NC[C@H]2C1)C1CCN(CC2CCN(c3ccc4c(c3)CN(C3CCC(=O)NC3=O)C4=O)CC2)CC1 (stereo partly shown)

1: 75 to 85%; 2: > 85%; 3: 75 to 85%; 4: > 85%; 5: > 85%; 6: > 85%; 7: > 85%
